System: Chordin-like protein 2 (CHRDL2)
Test: compounds binding chordin-like 2 – biochemical, small-molecule microarray, 635 nm fluorescence, primary screen (AID 1126);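 note: printed compound slides probed with Chrdl2 protein at 4 µg/mL for 1 h at 4 C; score merges 667 nm emission intensity with signal to noise over three replicate slides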
Settings: fluorescence 635 nm, higher = more signal
Output Fulfilled for composite z-score not less than 0.5; output Not fulfilled otherwise.

INPUT: Identify whether the reported composite z-score of the following compound is 0.5 or greater: C=CCNC(=O)[C@@H]1[C@H]2C(=O)O[C@H](c3ccccc3)[C@H](c3ccccc3)N2[C@H](c2ccccc2OCCO)[C@@]12C(=O)N(C(=O)OCCOC)c1ccc(C#CCC(C(=O)OC)C(=O)OC)cc12
OUTPUT: Fulfilled

INPUT: Identify whether the reported composite z-score of the following compound is 0.5 or greater: O=C1O[C@@H](c2ccccc2)[C@@H](c2ccccc2)N2[C@@H](c3ccc(O)cc3)[C@]3(C(=O)Nc4ccccc43)[C@@H](C(=O)NC[C@H](O)c3ccccc3)[C@H]12
OUTPUT: Not fulfilled

INPUT: Identify whether the reported composite z-score of the following compound is 0.5 or greater: COc1ccc([Si](C)(C)[C@@H]2[C@@H](CCn3cc([C@H](O)c4ccccc4)nn3)O[C@]3(C(=O)N(C)c4ccccc43)[C@H]2C)cc1
OUTPUT: Not fulfilled

INPUT: Identify whether the reported composite z-score of the following compound is 0.5 or greater: [N-]=[N+]=NCc1ccccc1C[C@]1(C(=O)NCC(O)CO)COC(c2ccc(OCCCO)cc2)=N1 (some centres not stated)
OUTPUT: Not fulfilled

INPUT: Identify whether the reported composite z-score of the following compound is 0.5 or greater: Cc1ccc(S[C@]2(C(=O)NCC(C)C)CC(=O)N(Cc3ccccc3)[C@@H]2c2ccc(CO)cc2)cc1
OUTPUT: Not fulfilled

INPUT: Identify whether the reported composite z-score of the following compound is 0.5 or greater: C=CCCN(CC#C[C@H]1Oc2ccccc2S(=O)(=O)N2CCC[C@@H]12)S(=O)(=O)c1ccc(C)cc1
OUTPUT: Fulfilled

INPUT: Identify whether the reported composite z-score of the following compound is 0.5 or greater: CC[C@@H]1C=C(C(=O)O)[C@H](c2ccc(C(C)C)cc2)N1S(=O)(=O)c1ccc(C)cc1
OUTPUT: Not fulfilled

====

Experiment: calcein-AM signal in unstimulated myeloma cells – cell-based, calcein-AM fluorescence, 48 h, PK04 Diversity Set, profiling panel (AID 1166);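 note: cells grown under basal conditions without added stimulus; test concentration not given here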
Conditions: RPMI8226 myeloma viability, higher = more signal
Label true (1) when z-score < -2; otherwise false (0).

CC[C@@H]1C=C(C(=O)O)[C@H](c2ccc(C(C)C)cc2)N1S(=O)(=O)c1ccc(C)cc1    false (0)
C=CC[C@@]1(C(=O)OC)N=C(c2ccc(OCCCO)cc2)O[C@@H]1c1ccccc1CN=[N+]=[N-]    true (1)
Cc1ccc(N2C(=O)c3ccccc3[C@](C)(C(=O)NCCN3CCOCC3)[C@@H]2c2ccc(CO)cc2)nc1    false (0)

INPUT: In plain terms, does O=C1OCCC=C[C@H]2OC34C=CCN(c5ccc6ccccc6c5)C(=O)[C@H]3N(CCCCCCO)C(=O)[C@@H]4C12 (stereo partly specified) come in under -2 for z-score?
OUTPUT: false (0)

INPUT: In plain terms, does COC(=O)[C@@]1(Cc2ccc(F)cc2)[C@H]2c3cc(C(=O)N4CCCC4)n(CCc4ccc(OC)c(Br)c4)c3C[C@H]2CN1C(=O)c1ccccc1 come in under -2 for z-score?
OUTPUT: true (1)

INPUT: In plain terms, does CC(C)(C)OC(=O)CC[C@]1(C(=O)NCC(O)CO)N=C(c2ccc(OCCCO)cc2)O[C@H]1c1ccccc1CN=[N+]=[N-] (stereo partly specified) come in under -2 for z-score?
OUTPUT: false (0)

INPUT: In plain terms, does Cc1ccc(S[C@]2(C(=O)NCC(C)C)CC(=O)N(Cc3ccccc3)[C@@H]2c2ccc(CO)cc2)cc1 come in under -2 for z-score?
OUTPUT: false (0)

INPUT: In plain terms, does COc1ccc([Si](C)(C)[C@@H]2[C@@H](CCO)O[C@]3(C(=O)N(Cc4cccc(N(C=O)c5ccccc5)c4)c4ccccc43)[C@H]2C)cc1 come in under -2 for z-score?
OUTPUT: false (0)

INPUT: In plain terms, does CC1CC/C=C\[C@H]2OC34C=CCN(c5ccc6ccccc6c5)C(=O)[C@H]3N(CCCCCO)C(=O)[C@@H]4C2C(=O)O1 (stereo partly specified) come in under -2 for z-score?
OUTPUT: false (0)

INPUT: In plain terms, does Cc1ccc(S[C@]2(C(=O)NCCCN(C)C)CC(=O)N(C(C)C)[C@@H]2c2ccc(CO)cc2I)cc1 come in under -2 for z-score?
OUTPUT: false (0)

INPUT: In plain terms, does CCCNC(=O)[C@@]1(c2ccc([N+](=O)[O-])cc2)CC(=O)N(CC23CC4CC(CC(C4)C2)C3)[C@@H]1c1ccc(CO)cc1I come in under -2 for z-score?
OUTPUT: true (1)

INPUT: In plain terms, does NC(=O)NCC#Cc1ccc2c(c1)[C@]1(C(=O)N2)[C@H](c2ccc(O)cc2)N2[C@H](c3ccccc3)[C@H](c3ccccc3)OC(=O)[C@H]2[C@@H]1C(=O)N1CCN(c2ncccn2)CC1 come in under -2 for z-score?
OUTPUT: false (0)

INPUT: In plain terms, does O=C1c2ccccc2[C@@]2(Cc3ccccc3N(Cc3ccccc3)C2=O)[C@H](c2ccc(CO)cc2)N1Cc1ccccc1C(F)(F)F come in under -2 for z-score?
OUTPUT: false (0)

INPUT: In plain terms, does O=C(NCC(O)CO)[C@@]1(Cc2ccccc2)N=C(c2ccc(OCCCO)cc2)O[C@H]1c1ccccc1 (stereo partly specified) come in under -2 for z-score?
OUTPUT: false (0)

INPUT: In plain terms, does CC(C)(C)OC(=O)CC[C@@]1(C(=O)NCC(O)CO)N=C(c2ccc(OCCCO)cc2)O[C@@H]1c1ccccc1 (stereo partly specified) come in under -2 for z-score?
OUTPUT: false (0)

INPUT: In plain terms, does Cc1cc(C)c(C(O)C2C=CC3C(=O)NC(=O)C3N2Nc2ccccn2)c(C)c1 (stereo unspecified) come in under -2 for z-score?
OUTPUT: false (0)

INPUT: In plain terms, does Cc1ccc(C(C)CC(O)C2C=CC3C(=O)NC(=O)C3N2Nc2ccccn2)o1 (stereo unspecified) come in under -2 for z-score?
OUTPUT: false (0)

INPUT: In plain terms, does C=CCC(OC(C)=O)[C@@H]1[C@@H](N(Cc2ccc(-c3cccc(C(F)(F)F)c3)o2)C(=O)c2ccc(C)cc2)c2cc(OCCCO)ccc2N1C(=O)c1ccc2ccccc2n1 (stereo partly specified) come in under -2 for z-score?
OUTPUT: false (0)

INPUT: In plain terms, does O=C1OCCC=C[C@H]2OC34C=CCN(CCN5CCOCC5)C(=O)[C@H]3N(CCO)C(=O)[C@@H]4C12 (stereo partly specified) come in under -2 for z-score?
OUTPUT: false (0)

INPUT: In plain terms, does CCOC(=O)C[C@H]1[C@H](OC(=O)c2ccc(C(=O)c3ccccc3)cc2)[C@@H](NC(=O)c2ccc3ccccc3n2)c2cc(OCCCO)ccc2N1C(=O)c1ccc2ccccc2n1 come in under -2 for z-score?
OUTPUT: false (0)

====

Test: plasmodial surface anion channel blockers, osmotic lysis – cell-based, P. falciparum Indochina, OD700, 18 h, primary screen (AID 1157)
Conditions: P. falciparum Indochina infected erythrocytes, osmotic lysis OD700, 18 h; higher = more signal, called active from +8 up or from −8 down
measured endpoint: z-score
Lab note: record the figure alone, no unit after it.

Cc1cc(C)c(C(O)C2C=CC3C(=O)NC(=O)C3N2Nc2ccccn2)c(C)c1 (configuration not stated)    1.07
C=CCN1Cc2ccccc2C[C@@]2(COC(c3ccc(OCCCO)cc3)=N2)C1=O    0.985
CC1(C)C(=O)C(c2ccccc2)=C2CN3C(=O)N(CCc4ccccc4)C(=O)C3(Cc3ccccc3)C=C21 (configuration not stated)    0.861
[N-]=[N+]=NCc1ccccc1C[C@]1(C(=O)NCC(O)CO)COC(c2ccc(OCCCO)cc2)=N1 (some centres not stated)    0.91
CN(C)CCCN1C(=O)[C@@]2(c3ccc([N+](=O)[O-])cc3)CC(=O)N(C3CCCCC3)[C@@H]2c2ccc(CO)cc21    -1.73

INPUT: Tell me measured z-score for C=CCOC(=O)[C@@H]1[C@H]2C(=O)O[C@H](c3ccccc3)[C@H](c3ccccc3)N2[C@H](c2ccc(OCCOC(=O)[C@H]3C[C@H]4C(=O)N[C@@H](Cc5ccccc5)C(=O)N4[C@H]3c3ccc(O)cc3)cc2)[C@@]12C(=O)Nc1ccc(I)cc12 please.
OUTPUT: 2.58

INPUT: Tell me measured z-score for COC(=O)[C@@]1(Cc2ccc(F)cc2)[C@H]2c3cc(C(=O)N4CCCC4)n(Cc4ccc(Cl)c(C(F)(F)F)c4)c3C[C@H]2CN1C(=O)c1ccccc1 please.
OUTPUT: 1.21
